Biological target: MAGI2_4, Q86UL8
Sequence (Q86UL8 772-865): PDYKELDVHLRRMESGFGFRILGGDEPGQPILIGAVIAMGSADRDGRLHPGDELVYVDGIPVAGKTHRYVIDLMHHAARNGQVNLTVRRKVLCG
Test: holdup assay
Parameters: key: below the threshold = too weak to quantify, mostly under pKd 3.1 to 4
Settings: plain residues with an end cap or a label only (N-terminal biotin on a linker: ado-ado)
measure-name: pKd

Here is how some binders turned out for pKd.
binder	pKd
ARGPPRESEV [FAM110D, Q8TAY7]	4.09
EDLEDEWEVI [TECPR2, O15040]	below the threshold
KKMLQRRTLL [OR8G1, Q15617]	below the threshold
EPQYQPGENL [SRC, P12931]	below the threshold
ARESQKVSHV [FAM110B, Q8TC76]	below the threshold

Query: I am curious: what pKd value has been reported for DFLSTFHIRI [CIB2, O75838] ?
Reply: below the threshold

Query: Please look up its pKd: QRPYRRGSEI [KCNJ18, B7U540]
Reply: below the threshold

Query: Quick one: pKd of TRKRSGEAAV [PFKM, P08237] ?
Reply: below the threshold

Query: Any idea what pKd was measured for EDGESWEYQI [TRPV6, Q9H1D0] ?
Reply: below the threshold

Query: Value lookup for pKd; key = APIAGFSSFV [SDK2, Q58EX2]
Reply: 3.94
